# Test system: HCT-116 colon
# METHOD NOTES: NCI tumour cell line growth inhibition, 48 h; in the data active = GI50 below about 0.43 µM; inactive = the rest
Would you mind answering with one of these outcomes? active, inactive

> print(dat)
                                   molecule  answer.label
1  CC(=O)O[C@H]1[C@@H]2OC(=O)C3(CC3)C2C[C@H]2O[C@]2(C)CC/C=C(\C)CCC[C@@H]1C (some centres not stated)      inactive
2  CC1CN=C(c2cccc(-c3ccc(-c4ccccc4)o3)c2)N1 (configuration not stated)      inactive
3  O=C(Cc1ccc(OCc2ccccc2)cc1)NCc1ccc2c(c1)OCO2      inactive

Tell me the assay call for C1CCC(C(CC2CCCCN2)C2CCCCC2)CC1 (configuration not stated) please.
inactive

Then `CNCCC/C=C1\c2cc3c(cc2-c2c1c1cc(OC)c(OC)cc1c(=O)n2C)OCO3` ?
active

Check `O=c1c2[nH]ccc2nc2n1CCS2` too.
inactive

Repeat for the following molecule: CCC(C)C1=NC(C(=O)N/C=C\c2c[nH]c3cc(Br)c(Br)cc23)(C(C)C)NC1=O (configuration not stated)
inactive

For `O=C(C1CC1)N1CC[C@@H](Cc2n[nH]c(=O)n2-c2ccc(-c3ccc4occc4c3)cc2)C1` then?
inactive

Then `CCN1CCN(Cc2ccc(NC(=O)c3nc4ccc5[nH]ncc5c4c4c3CCCC4)cc2C(F)(F)F)CC1` ?
inactive

Consider next the molecule `C=C1C(=O)O[C@H]2[C@H]1CC/C(COC(=O)NCc1c[nH]c3ccc(Br)cc13)=C\CC[C@@]1(C)O[C@@H]21` in the same way.
inactive

Try this molecule next: `Clc1ccc(-c2nc(-c3ccccc3)cn3ccnc23)cc1`
inactive

Try `COc1ccc2[nH]c(=O)c(/C=C/C(=O)c3ccccc3OC)cc2c1` next.
active
